# MEASURED TARGET: Ba/F3-KDR-transfected cells (Homo sapiens, UniProt P35968)
# Construct: BAF3-KDR (MIN IL3) pIC50; other: minus IL3
# Sequence (P35968 whole entry, change not shown): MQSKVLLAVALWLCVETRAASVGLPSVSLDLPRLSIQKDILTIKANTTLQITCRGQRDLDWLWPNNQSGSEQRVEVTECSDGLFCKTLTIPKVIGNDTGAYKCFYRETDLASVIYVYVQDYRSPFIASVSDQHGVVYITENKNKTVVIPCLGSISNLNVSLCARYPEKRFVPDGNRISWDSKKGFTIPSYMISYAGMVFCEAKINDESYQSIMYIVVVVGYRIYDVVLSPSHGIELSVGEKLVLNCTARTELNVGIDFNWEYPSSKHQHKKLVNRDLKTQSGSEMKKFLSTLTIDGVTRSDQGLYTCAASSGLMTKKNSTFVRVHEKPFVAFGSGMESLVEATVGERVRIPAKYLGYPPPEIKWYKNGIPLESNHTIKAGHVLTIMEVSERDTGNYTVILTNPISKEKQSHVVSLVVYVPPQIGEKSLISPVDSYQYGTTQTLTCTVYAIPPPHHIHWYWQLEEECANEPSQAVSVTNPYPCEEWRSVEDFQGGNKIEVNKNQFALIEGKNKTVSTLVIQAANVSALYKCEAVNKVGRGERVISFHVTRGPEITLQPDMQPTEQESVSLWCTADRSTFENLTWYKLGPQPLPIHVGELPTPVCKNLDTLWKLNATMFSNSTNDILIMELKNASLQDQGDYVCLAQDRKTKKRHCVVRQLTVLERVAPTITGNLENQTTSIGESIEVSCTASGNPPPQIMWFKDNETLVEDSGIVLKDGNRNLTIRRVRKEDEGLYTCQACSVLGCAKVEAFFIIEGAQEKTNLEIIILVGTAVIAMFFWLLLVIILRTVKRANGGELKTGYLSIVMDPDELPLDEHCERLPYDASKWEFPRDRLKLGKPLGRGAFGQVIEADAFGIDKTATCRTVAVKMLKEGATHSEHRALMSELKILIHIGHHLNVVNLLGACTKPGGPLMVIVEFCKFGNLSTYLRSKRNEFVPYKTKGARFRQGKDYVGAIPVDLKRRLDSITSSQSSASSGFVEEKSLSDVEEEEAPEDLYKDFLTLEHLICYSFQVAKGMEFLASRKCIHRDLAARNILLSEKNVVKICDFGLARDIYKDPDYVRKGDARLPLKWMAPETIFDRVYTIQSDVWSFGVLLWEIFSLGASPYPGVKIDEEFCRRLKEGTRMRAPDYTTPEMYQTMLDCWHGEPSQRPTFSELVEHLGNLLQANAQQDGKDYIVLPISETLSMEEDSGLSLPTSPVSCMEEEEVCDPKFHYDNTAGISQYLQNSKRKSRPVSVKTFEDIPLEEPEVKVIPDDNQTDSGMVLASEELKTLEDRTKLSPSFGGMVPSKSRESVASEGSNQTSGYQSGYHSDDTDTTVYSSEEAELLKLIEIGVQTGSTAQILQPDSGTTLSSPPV
# ASSAY COMMENT: Ba/F3-KDR (minus IL3) cellular proliferation assay, Alamar Blue
# Assay type: cell-based
Give BAF3-KDR (MIN IL3) pIC50 for every item shown.
Respond numerically, and do not add a unit to the figure.

Quick one: BAF3-KDR (MIN IL3) pIC50 for COc1cc(OC)c(F)c(N(Cc2ncc[nH]2)c2ccc3ncc(-c4cccnc4)nc3n2)c1 [Compound 190a] ?
5.82

Repeat for the following compound: COc1cc(OC)c(F)c(N(CC(N)=O)c2ccc3ncc(-c4cnn(C)c4)nc3n2)c1 [Compound 239]
5.27

Could you do the same for COc1cc(/N=c2\ccc3ncc(-c4cnn(C)c4)nc3n2CCNC(C)C)c(F)c(OC)c1 [Compound 37] , please?
6.11

* * *

# MEASURED TARGET: FGFR3 (h) (Homo sapiens)
# Sequence (P22607 23-806): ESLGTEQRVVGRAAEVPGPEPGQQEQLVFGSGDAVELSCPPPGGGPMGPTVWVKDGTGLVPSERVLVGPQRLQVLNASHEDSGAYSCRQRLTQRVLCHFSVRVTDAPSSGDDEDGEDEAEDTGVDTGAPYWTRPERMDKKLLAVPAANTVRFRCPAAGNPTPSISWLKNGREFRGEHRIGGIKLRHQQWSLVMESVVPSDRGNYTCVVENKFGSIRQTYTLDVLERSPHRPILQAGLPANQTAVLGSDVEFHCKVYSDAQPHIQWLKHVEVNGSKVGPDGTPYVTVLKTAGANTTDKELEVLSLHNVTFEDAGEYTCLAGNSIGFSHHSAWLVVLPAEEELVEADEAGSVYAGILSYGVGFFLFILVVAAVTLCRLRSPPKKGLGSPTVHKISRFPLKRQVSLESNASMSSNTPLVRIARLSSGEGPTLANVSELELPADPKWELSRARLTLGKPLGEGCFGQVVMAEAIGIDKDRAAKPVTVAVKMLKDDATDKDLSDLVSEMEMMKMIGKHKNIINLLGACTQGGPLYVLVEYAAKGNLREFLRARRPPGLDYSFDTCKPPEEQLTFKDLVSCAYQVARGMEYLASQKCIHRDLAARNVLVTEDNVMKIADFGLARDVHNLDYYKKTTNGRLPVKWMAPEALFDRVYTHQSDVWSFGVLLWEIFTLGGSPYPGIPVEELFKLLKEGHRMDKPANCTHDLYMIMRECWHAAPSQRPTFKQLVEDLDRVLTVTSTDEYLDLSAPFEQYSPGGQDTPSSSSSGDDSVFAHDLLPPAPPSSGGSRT
# ASSAY COMMENT: FGFR3 (enzymatic assay), TR-FRET
# Format: biochemical
# CONDITION: read-out: FGFR 3 pIC50 (converted)
Hi there, I'd appreciate the recorded log10 of IC50 for every entry that follows.
In our notation, the value equals log10 of IC50 in nM.

log10 of IC50 lookup needed for COc1cc(OC)c(F)c(N(CC#N)c2ccc3ncc(-c4cnn(C)c4)nc3n2)c1F , thanks.
-0.36

Queued: CCN(c1ccc2ncc(-c3cnn(C)c3)nc2n1)c1c(F)c(OC)cc(OC)c1F
-0.15

Item: COc1cc(OC)c(F)c(N(CC2CCC(=O)N2CCO)c2ccc3ncc(-c4cnn(C)c4)nc3n2)c1 (centres unmarked) [Compound 194]
0.93

Try COc1cc(OC)c(F)c(N(Cc2ncc[nH]2)c2ccc3ncc(-c4cn[nH]c4)nc3n2)c1 next.
0.09

Consider next the compound COC(=O)CN(c1ccc2ncc(-c3cnn(C)c3)nc2n1)c1cc(OC)cc(OC)c1F in the same way.
0.38

Try this compound next: COc1cc(OC)c(F)c(N(CC(=O)N2CCNCC2)c2ccc3ncc(-c4cnn(C)c4)nc3n2)c1
1.24

And then COc1cc(/N=c2\ccc3ncc(-c4cnn(C)c4)nc3n2CCCN2CCCC2=O)c(F)c(OC)c1 , what is it?
-0.15

Can you check COc1cc(OC)c(F)c(N(Cc2c[nH]nn2)c2ccc3ncc(-c4cnn(C)c4)nc3n2)c1 next?
-0.17

* * *

# MEASURED TARGET: Ba/F3-FGFR3-transfected cells (Homo sapiens)
# Construct: BAF3-FGFR3 (MIN IL3) pIC50; other: minus IL3
# Sequence (P22607 whole entry, change not shown): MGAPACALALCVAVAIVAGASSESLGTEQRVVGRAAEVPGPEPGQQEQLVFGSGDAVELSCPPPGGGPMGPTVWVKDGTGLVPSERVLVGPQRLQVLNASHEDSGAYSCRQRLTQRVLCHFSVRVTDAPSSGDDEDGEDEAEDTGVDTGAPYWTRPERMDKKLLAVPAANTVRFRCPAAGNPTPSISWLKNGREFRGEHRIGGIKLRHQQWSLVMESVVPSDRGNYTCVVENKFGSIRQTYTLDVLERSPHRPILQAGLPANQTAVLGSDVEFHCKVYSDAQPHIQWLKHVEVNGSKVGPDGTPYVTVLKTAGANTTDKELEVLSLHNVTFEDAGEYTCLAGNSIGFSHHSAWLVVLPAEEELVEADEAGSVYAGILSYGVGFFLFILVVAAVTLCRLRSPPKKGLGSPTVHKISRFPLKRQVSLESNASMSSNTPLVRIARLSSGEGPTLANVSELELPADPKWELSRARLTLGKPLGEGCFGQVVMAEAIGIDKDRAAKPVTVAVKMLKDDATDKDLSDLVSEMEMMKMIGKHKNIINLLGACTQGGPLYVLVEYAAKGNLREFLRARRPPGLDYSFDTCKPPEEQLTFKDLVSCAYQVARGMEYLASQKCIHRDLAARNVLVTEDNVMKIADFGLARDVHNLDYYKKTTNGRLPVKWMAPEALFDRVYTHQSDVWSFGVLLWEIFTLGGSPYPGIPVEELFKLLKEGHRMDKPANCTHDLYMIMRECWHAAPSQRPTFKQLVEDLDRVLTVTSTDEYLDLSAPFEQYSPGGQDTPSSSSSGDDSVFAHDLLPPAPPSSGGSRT
# ASSAY COMMENT: Ba/F3-FGFR3 (minus IL3) cellular proliferation assay, Alamar Blue
# Assay type: cell-based
OBSERVED PROPERTY: BAF3-FGFR3 (MIN IL3) pIC50
Keep it simple and answer with nothing but the number.

For the compound COc1cc(OC)cc(N(CCN2CCCC2=O)c2ccc3ncc(-c4cnn(C)c4)nc3n2)c1 [Compound 151] , what BAF3-FGFR3 (MIN IL3) pIC50 is on record?
5.72

# repeat for Cn1cc(-c2cnc3ccc(N(Cc4ncc[nH]4)c4c(F)c(F)cc(F)c4F)nc3n2)cn1 [Compound 175]
6.86

Request: COc1cc(OC)c(F)c(N(CCN)c2ccc3ncc(-c4cnn(C)c4)nc3n2)c1F [Compound 67]
7.83

Also COc1cc(/N=c2\ccc3ncc(-c4cnn(C)c4)nc3n2CC2CCC(=O)N2C)c(F)c(OC)c1 (stereo not shown) [Compound 160] , if possible.
7.20

Another: COc1cc(OC)cc(N(CC(O)C(F)(F)F)c2ccc3ncc(-c4cnn(C)c4)nc3n2)c1 (stereo not shown) [Compound 8]
7.6

How about this compound: COc1cc(OC)c(F)c(/N=c2\ccc3ncc(-c4cnn(C)c4)nc3n2CC(O)COC(C)C)c1F (stereo not shown) [Compound 64]
8.12

Moving on to the next compound: COc1cc(OC)cc(N(Cc2nncn2CCO)c2ccc3ncc(-c4cnn(C)c4)nc3n2)c1 [Compound 204]
6.09
